- method-summary: Drug metabolism in prednisone treated CD1 mouse liver microsomes assessed as metabolite formation at 20 uM after 30 mins by LC/MS analysis in presence of NADPH and CYP1A1 inhibitor alpha-naphthoflavone
- Assay type: ADME
- condition: 0.5 h
endpoint-name: Drug metabolism

C=C1/C(=C\C=C2/CCC[C@]3(C)[C@@H]([C@H](C)C[C@H](O)CC(C)(C)O)CC[C@@H]23)C[C@@H](O)C[C@@H]1O : metabolite_detected
C=C1/C(=C\C=C2/CCC[C@]3(C)[C@@H]([C@H](C)CCCC(C)(C)O)CC[C@@H]23)C[C@@H](O)C[C@@H]1O : metabolite_detected
C=C1/C(=C\C=C2/CCC[C@]3(C)[C@@H]([C@H](C)CC[C@H](O)C(C)(C)O)CC[C@@H]23)C[C@@H](O)C[C@@H]1O : metabolite_detected
C=C1/C(=C\C=C2/CCC[C@]3(C)[C@@H]([C@H](C)CC[C@@H](O)C(C)(C)O)CC[C@@H]23)C[C@@H](O)C[C@@H]1O : metabolite_detected

Now for the compound whose Drug metabolism we want.
Look up Drug metabolism: C=C1/C(=C\C=C2/CCC[C@]3(C)[C@@H]([C@H](C)C[C@@H](O)CC(C)(C)O)CC[C@@H]23)C[C@@H](O)C[C@@H]1O
metabolite_detected
